ASSAY_TARGET: Estrogen receptor (Homo sapiens) + Estrogen receptor beta (Homo sapiens) (UniProt P03372+Q92731)
Sequence (P03372 whole entry, looked up, the tested form may be a part): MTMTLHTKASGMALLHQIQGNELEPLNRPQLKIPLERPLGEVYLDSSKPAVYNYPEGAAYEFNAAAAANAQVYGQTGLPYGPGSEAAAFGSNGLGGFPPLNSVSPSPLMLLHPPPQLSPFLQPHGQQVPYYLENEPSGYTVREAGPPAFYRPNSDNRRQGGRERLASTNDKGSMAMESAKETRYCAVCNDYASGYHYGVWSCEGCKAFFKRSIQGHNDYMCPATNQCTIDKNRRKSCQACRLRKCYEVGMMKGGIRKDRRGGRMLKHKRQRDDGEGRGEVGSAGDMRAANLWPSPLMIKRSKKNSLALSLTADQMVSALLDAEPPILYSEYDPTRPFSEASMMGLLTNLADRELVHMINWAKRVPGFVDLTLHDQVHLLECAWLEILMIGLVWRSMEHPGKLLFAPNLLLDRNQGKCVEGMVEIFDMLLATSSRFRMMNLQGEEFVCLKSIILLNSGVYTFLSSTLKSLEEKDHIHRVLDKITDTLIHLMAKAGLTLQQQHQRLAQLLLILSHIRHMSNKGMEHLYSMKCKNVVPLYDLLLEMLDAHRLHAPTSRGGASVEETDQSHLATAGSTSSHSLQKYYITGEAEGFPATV
Sequence (Q92731 whole entry, looked up, the tested form may be a part): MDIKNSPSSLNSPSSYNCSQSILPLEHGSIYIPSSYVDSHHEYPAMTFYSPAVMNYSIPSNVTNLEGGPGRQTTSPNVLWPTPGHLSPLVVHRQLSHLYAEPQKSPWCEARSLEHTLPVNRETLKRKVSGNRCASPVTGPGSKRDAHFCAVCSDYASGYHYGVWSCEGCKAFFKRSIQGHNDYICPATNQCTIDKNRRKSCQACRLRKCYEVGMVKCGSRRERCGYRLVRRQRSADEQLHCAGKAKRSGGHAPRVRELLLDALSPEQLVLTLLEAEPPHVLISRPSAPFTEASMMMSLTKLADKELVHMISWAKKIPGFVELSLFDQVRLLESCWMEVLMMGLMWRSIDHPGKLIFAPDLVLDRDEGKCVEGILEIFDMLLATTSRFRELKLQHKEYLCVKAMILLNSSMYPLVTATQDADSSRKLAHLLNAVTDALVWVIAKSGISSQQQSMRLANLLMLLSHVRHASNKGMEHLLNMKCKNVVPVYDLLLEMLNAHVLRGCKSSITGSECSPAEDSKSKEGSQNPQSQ
ASSAY_TEXT: OT_ER_ERaERb_1440: Odyssey Thera (OT) 24-hour HEK293T Protein-Complementation Assay for Estrogen Receptor-alpha/-beta Homodimer (AID 2283356);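 also: heteromer of ER alpha and ER beta binding domains; hits raise reporter fluorescence and both agonists and antagonists give an increase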
Results filed as inconclusive are left out. The source made the active and inactive calls. The calls were made as follows: active = hit-call score of the fitted dose curve at least 0.9, where 1 is the maximum; inconclusive = response in the unintended direction; inactive = score below 0.9.
Possible outcomes: active, inactive

| COMPOUND | CLASS_ASSIGNMENT |
| --- | --- |
| Oc1cc2ccccc2c2ccccc12 | inactive |
| CCCCCCC(=O)O | inactive |
| COc1ccc([N+](=O)[O-])cc1N | inactive |
| OCCC(F)(F)C(F)(F)C(F)(F)C(F)(F)C(F)(F)C(F)(F)F | inactive |
| CC[C@H](C)[C@@H](C(=O)O)n1sc2ccccc2c1=O | inactive |
| CC(C)(C)CC(C)(C)c1ccc(O)c(-n2nc3ccccc3n2)c1 | inactive |
| O=C1OC2(c3ccccc31)c1cc(Br)c(O)c(Br)c1Oc1c2cc(Br)c(O)c1Br | active |
| C[C@@H]1C[C@H]2[C@@H]3CCC4=CC(=O)C=C[C@]4(C)[C@@]3(F)[C@@H](O)C[C@]2(C)[C@@]1(O)C(=O)COP(=O)(O)O | inactive |
| CC(=O)CC(C)(C)O | inactive |
| c1ccc2c(c1)Cc1ccccc1-2 | inactive |
| CC(C)(C)c1ccc(O)c(C(C)(C)C)c1 | inactive |
| OCCC(F)(F)C(F)(F)C(F)(F)C(F)(F)C(F)(F)C(F)(F)C(F)(F)C(F)(F)F | inactive |
| Cc1cc(CCN2CCN(c3nsc4ccccc34)CC2)cc2c1NC(=O)CC2(C)C | inactive |
| N#C[C@@H]1CC(F)(F)CN1C(=O)CNC1CC2CCC(C1)N2c1ncccn1 (stereo partly drawn) | inactive |
| Cc1oc(-c2ccccc2)nc1CCOc1ccc(C[C@H](Nc2ccccc2C(=O)c2ccccc2)C(=O)O)cc1 | inactive |
| CN(C)C=O | inactive |
| NC(=O)N1C(=O)C(C(=O)c2cc(Cl)cs2)c2cc(F)c(Cl)cc21 (stereo not drawn) | inactive |
| CC(C)(C)c1cc(C(C)(C)C)c(O)c(C(C)(C)C)c1 | active |
| O=C(O)Cc1cc(I)c(Oc2cc(I)c(O)c(I)c2)c(I)c1 | inactive |
| COCC(C)OCC(C)O (stereo not drawn) | inactive |
| CCc1ccc(CCOc2ccc(CC3SC(=O)NC3=O)cc2)nc1 (stereo not drawn) | inactive |
| CCCCCCCCC(=O)O | inactive |
| O=C(O)c1ccccc1C(c1ccc(O)cc1)c1ccc(O)cc1 | inactive |

###

ASSAY_TEXT: Tanguay_ZF_120hpf_OTIC_legacy: (Legacy) Oregon State University Tanguay Lab 120 Hour Post-fertilization zebrafish Assay for Otic Vesicle Malformation (AID 2283639)
Results filed as inconclusive are left out. Calls of active or inactive are those of the source. How the source made its calls: active means hit-call score of the fitted dose curve at least 0.9, where 1 is the maximum; inconclusive means response in the unintended direction; inactive means score below 0.9.
Possible outcomes: active, inactive

| MOLECULE | CLASS_ASSIGNMENT |
| --- | --- |
| c1ccc2cc3c(ccc4ccccc43)cc2c1 | active |
| CN1CCN(c2ccccc2/C=C2\SCCN(c3ccc(Cl)c(Cl)c3)C2=O)CC1 | inactive |
| CCOC(=O)CC(O)(CC(=O)OCC)C(=O)OCC | inactive |
| COc1ccc([N+](=O)[O-])cc1N | inactive |
| CC(C)(C)c1ccc(O)c(C(C)(C)C)c1 | inactive |
| COCC(C)O (centres undefined) | inactive |
| N#C[C@@H]1CC(F)(F)CN1C(=O)CNC1CC2CCC(C1)N2c1ncccn1 (some centres undefined) | inactive |
| Nc1cccc2c(N)cccc12 | inactive |
| CC[C@H](c1ccc(O)cc1)[C@@H](CC)c1ccc(O)cc1 | inactive |
